Measured pIC50, listed per entry for reference.
# Target desc: KEAP1 C151 (Homo sapiens)
# Construct: treating 500 μg of cell lysate generated from MDA-MB-468 breast cancer cells with DMSO or compound; endogenous in cells
# Sequence (Q14145 whole entry): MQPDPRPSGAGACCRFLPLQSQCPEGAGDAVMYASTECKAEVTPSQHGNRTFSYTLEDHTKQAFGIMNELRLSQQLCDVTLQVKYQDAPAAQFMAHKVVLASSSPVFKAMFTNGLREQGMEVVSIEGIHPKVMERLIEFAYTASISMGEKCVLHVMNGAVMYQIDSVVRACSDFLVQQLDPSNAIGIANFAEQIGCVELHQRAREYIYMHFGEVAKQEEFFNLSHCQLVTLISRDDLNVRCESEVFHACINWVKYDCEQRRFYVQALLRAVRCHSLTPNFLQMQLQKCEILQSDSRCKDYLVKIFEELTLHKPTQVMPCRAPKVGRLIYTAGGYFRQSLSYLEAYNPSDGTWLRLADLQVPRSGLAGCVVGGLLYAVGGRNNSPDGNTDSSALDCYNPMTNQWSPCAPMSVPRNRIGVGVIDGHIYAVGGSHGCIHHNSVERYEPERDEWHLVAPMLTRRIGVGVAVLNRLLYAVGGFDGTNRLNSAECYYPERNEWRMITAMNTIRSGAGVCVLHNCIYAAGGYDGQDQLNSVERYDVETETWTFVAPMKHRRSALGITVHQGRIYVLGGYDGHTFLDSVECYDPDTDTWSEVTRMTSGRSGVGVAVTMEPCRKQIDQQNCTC
# Protocol text: Nrf2 TMT measurement: in vitro TE50 for KEAP1 C151 (IA-DTB competition, targeted TMT mass spectrometry) in MDA-MB-468 cell lysate
# Conditions used: in vitro target engagement of KEAP1 C151, targeted TMT, read-out: KEAP1_C151 TE50
pIC50: −log10 of the molar value.
Readout kind: pIC50

- Molecule: "C=CC(=O)N1CCOC[C@H]1c1cc(Cl)cc(-c2cc(N)cnn2)c1 (single isomer, unassigned)"
  Target desc: "KEAP1 C151 (Homo sapiens)"
  Readout kind: "pIC50"
  Result qualifier: ">"
  Readout number: 8.19
- Molecule: "C=CC(=O)N1CCOC[C@H]1c1cc(Cl)cc(-c2ncc(F)cn2)c1 (single isomer, unassigned)"
  Target desc: "KEAP1 C151 (Homo sapiens)"
  Readout kind: "pIC50"
  Result qualifier: "="
  Readout number: 7.48
- Molecule: "C=CC(=O)N1CCOC[C@H]1c1cc(Cl)cc(-c2ccnc(C#N)n2)c1 (single isomer, unassigned)"
  Target desc: "KEAP1 C151 (Homo sapiens)"
  Readout kind: "pIC50"
  Result qualifier: "="
  Readout number: 7.43
- Molecule: "C=CC(=O)N1CCOCC1c1cc(Cl)cc(-c2ccncn2)c1 (single isomer, unassigned)"
  Target desc: "KEAP1 C151 (Homo sapiens)"
  Readout kind: "pIC50"
  Result qualifier: "="
  Readout number: 7.43

Where these numbers come from: patent US20260207621A1
